Data origin: the supplement of paper PMC6555819

# System: PPARg DBDmut:RXRa IVT, anti-PPARg (DBD mutation: PPARg1 K132A/R137A, NR concentration 270 nM, RXRa partner concentration 90 nM)
# assayText: PBM binding z-score (relative to random genomic background probes); higher = stronger binding; sequences stand for … in GC…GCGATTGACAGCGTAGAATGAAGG
PBM binding z-score by entry:
Hey, just send me the number, nothing else.

Some solved entries appear below for comparison.
# sequenceCode, PBM binding z-score
rows = [
    ("AGTCAAAGTTCATCTAGGTATCGTAAGATATGCT", 0.906),
    ("CCTACTGGGCCATTGAGAGGTCATTGATCATATG", -0.492),
    ("GATACAGGGTCAACTAGAGGCCAGAGTATGGAAA", 1.7),
    ("CCTACTGGGCGAAGGTCATTGATCAGTCAAAGCA", -1.21),
    ("CGTCCAAGGTCAAGGTGAGTGAAAGAGACTCGAA", 0.375),
]

[in] Output measured PBM binding z-score for this item: `ATCGAAAGGTCGTGAGGTGTGTATACAGAAAGGC`
[out] 1.54

[in] Output measured PBM binding z-score for this item: `CCTAGTTGGTCAAGGTCACGCACGCTATAGGTAC`
[out] 0.403

[in] Output measured PBM binding z-score for this item: `ATATGTAGGTTACCGGGTCATTCAGTTTGCGCAT`
[out] 6.4

[in] Output measured PBM binding z-score for this item: `AGCTCTAGGTAAAAGTTCAGTGAATCCCGAGGAT`
[out] -0.0694

[in] Output measured PBM binding z-score for this item: `ATGGAAAGGTCGTGAGGTGAGTATACAGAAAGGC`
[out] 0.977

[in] Output measured PBM binding z-score for this item: `TAGCCTAGGCCATGGGCCAGTATACCACGCGAAC`
[out] -0.116

[in] Output measured PBM binding z-score for this item: `ATCGAAAGGTCGTGACGTGAGTATACAGAAAGGC`
[out] 1.56

* * *

# Tested on: PPARg:RXRa (NR concentration 180 nM, RXRa partner concentration 90 nM)
# assayText: PBM binding z-score (relative to random genomic background probes); higher = stronger binding; sequences stand for … in GC…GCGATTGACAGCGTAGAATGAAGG
// label = 1 if PBM binding z-score is not less than 3, otherwise -1

# sequenceCode, assignedClass
data = [
    ("CATACTAGGTCAAAGGTCAAAGTCGAGCCAACCA", 1),
    ("TCGAGTAGGTTACGGGGGCAGTCAGGGATGAAGA", 1),
    ("AGTCAAAGTTCACTAGGTTACGTAAGATTCAGCT", 1),
    ("TCGAGTACGTTACGGGGGCATTCAGGGATGAAGA", -1),
    ("GACACAGGGTCAGCTAGAGGCCAGAGTATGGAAA", 1),
    ("ATACCAAGGTGATCGTGAGTTCGTTGATACTAAC", -1),
    ("CCGAGTAGGTTACGAGGGGGCATTCCGTGCGAAT", -1),
    ("TATACAGGGTCTAAGGCCAGAGTACGAATGTCGA", -1),
]

[in] Given `TCGAGTCGGTTACGGGGGCATTCAGGGATGAAGA` , state whether its PBM binding z-score is at least 3.
[out] -1

[in] Given `CAAACTAGGTCACCGGGAGGTCAAAGTCCGCATG` , state whether its PBM binding z-score is at least 3.
[out] 1
